# measurementTarget: L858R/T790M/C797S EGFR (Homo sapiens, UniProt P00533, C797S/L858R/T790M)
# Construct: expressed in transfected cells; host or cells: H1975 clone #25 (lentiviral over-expression, endogenous EGFR knocked out by sgRNA)
# Sequence (P00533 25-1210 T790M/C797S/L858R): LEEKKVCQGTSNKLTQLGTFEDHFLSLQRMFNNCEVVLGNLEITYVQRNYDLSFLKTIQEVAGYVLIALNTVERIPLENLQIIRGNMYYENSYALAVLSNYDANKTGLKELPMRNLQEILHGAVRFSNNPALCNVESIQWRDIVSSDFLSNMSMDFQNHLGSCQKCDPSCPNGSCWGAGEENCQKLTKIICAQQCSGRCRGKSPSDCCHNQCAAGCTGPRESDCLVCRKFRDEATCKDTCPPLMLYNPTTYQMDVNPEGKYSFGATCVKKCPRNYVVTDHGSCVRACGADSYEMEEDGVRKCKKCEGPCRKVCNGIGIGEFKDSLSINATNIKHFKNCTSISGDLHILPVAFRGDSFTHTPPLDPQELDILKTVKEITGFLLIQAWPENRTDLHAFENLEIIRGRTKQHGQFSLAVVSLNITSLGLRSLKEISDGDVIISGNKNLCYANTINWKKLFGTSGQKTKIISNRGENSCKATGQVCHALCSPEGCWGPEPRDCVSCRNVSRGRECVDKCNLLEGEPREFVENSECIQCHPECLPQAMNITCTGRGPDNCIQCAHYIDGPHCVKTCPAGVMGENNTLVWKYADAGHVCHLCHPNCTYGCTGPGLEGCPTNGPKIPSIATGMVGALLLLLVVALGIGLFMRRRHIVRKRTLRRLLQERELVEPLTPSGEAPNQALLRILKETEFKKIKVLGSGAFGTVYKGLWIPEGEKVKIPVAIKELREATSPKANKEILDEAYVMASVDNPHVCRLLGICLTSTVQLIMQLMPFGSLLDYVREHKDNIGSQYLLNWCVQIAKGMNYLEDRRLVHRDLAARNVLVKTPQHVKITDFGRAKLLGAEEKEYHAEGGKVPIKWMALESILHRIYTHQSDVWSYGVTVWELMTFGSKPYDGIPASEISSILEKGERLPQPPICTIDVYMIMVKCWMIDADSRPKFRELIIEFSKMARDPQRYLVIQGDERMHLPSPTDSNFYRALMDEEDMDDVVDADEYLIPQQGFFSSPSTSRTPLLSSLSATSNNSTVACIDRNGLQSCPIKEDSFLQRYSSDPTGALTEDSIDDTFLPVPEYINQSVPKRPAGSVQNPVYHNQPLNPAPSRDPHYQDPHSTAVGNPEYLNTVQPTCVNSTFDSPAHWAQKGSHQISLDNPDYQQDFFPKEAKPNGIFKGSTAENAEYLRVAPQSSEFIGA
# protocolNotes: EGFR degradation HTRF assay in H1975-clone #25 (LTC) cells
# Assay type: cell-based
# details: NCI-H1975, H1975 # 25-LTC (L858R/T790M/C797S), 16h treatment, maximum percentage of degradation
# Description: H1975-clone #28(Del19/T790M/C797S, or abbr: DTC), H1975-clone #23(Del19/C797S, or abbr: DC), H1975-clone #25(L858R/T790M/C797S, or abbr: LTC) and H1975-clone #8 (L858R/C797S, or abbr: LC). EGFR-Del19:T790M/C797S, EGFR-Del19/C797S, EGFR-L858R/T790M/C797S and EGFR-L858R/C797S were stably expressed in H1975 cell lines by lentivirus-mediated over-expression, respectively. […]
Record form. Attribute: Dmax. Fill in for each entry.
Report the value in % with no unit label.

In: For Cc1cc2cc(n1)-c1cnn(C)c1OCC[C@H]1C[C@@H]1CN1/C(=N/C2=O)Nc2ccc(N3CCN(C4CCN(c5ccc(C6CCC(=O)NC6=O)nc5)CC4)CC3)cc21 (some centres unmarked) [Example 469] , what is its reported Dmax?
Out: 82.7

In: Here is the next compound: Cc1cc2cc(n1)-c1cnn(C)c1OCCC[C@@H](C)CN1/C(=N/C2=O)Nc2ccc(N3CCC(C(=O)N4CCC(Oc5cc(F)c([C@H]6CCC(=O)NC6=O)c(F)c5)CC4)CC3)cc21 [Example 364]
Out: 86.4

In: Request: COC[C@H]1CN(C2CCN(c3cc(F)c([C@H]4CCC(=O)NC4=O)c(F)c3)CC2)CCN1c1ccc2c(c1)N1C[C@H](C)CCCOc3c(cnn3C)-c3cc(cc(C)n3)C(=O)/N=C/1N2 [Example 385]
Out: 82.3

In: Now this one: Cc1cc2cc(n1)-c1cnn(C)c1OCCC[C@@H](C)CN1/C(=N/C2=O)Nc2ccc(C(=O)N3CC[C@H]4CN(CCc5cc(F)c([C@H]6CCC(=O)NC6=O)c(F)c5)CC[C@H]43)cc21 [Example 304]
Out: 79.9

In: Cool, now Cc1cc2cc(n1)-c1cnn(C)c1OCCC[C@@H](C)CN1/C(=N/C2=O)Nc2ccc(CN3CCN(C(=O)[C@H]4CN(c5cc(F)c([C@H]6CCC(=O)NC6=O)c(F)c5)CC4(C)C)CC3)cc21 [Example 77]
Out: 83.4
